- Tested on: c-Src
- experiment: phosphorylation enrichment, bacterial display (enrichment ratio); higher = better substrate or ligand; peptides without Tyr show the background
Label rule, in plain words: phosphorylation enrichment of 0.6 and up is y, under 0.6 is n.

Enquiry: # check: phosphorylation enrichment of PYVYYYSYLLK [PTEN_Y178_R173P] is greater than or equal to 0.6
Return: y

Enquiry: Now try ILGRFYERGSI [PAX5_Y73_T75R_YF] .
Return: n

Enquiry: How about SVVVPYAPPEV [TP53_Y220_E221A] ?
Return: n

Enquiry: Also, NTGFFYDLFGG [PTPN11_Y63_D61Y_YF] please.
Return: y

Further cases:
Enquiry: Determine whether measured phosphorylation enrichment meets or exceeds 0.6 for GKTQQYDCKWY [BCR_Y751]
Return: n

Enquiry: Could you do the same for INNIDYYKKTT [FGFR2_Y656] , please?
Return: n

Enquiry: Then VPHECYAKVFD [ALB_Y394_D389V] ?
Return: n

Enquiry: Query DVQNEYDSNHC [ZFYVE16_Y36_A35E] next
Return: n

Enquiry: Another sequence to check: LTAEVYFPSIK [C5orf64_Y60]
Return: y

Enquiry: Let us now turn to QSKGIYFVQLE [MGAT4B_Y262_YF]
Return: y

Enquiry: For DLAAQYTTVGH [SGSH_Y240_R245H] then?
Return: y

Enquiry: Try this sequence too: SARSAYQEAID [SFN_Y151_M155I]
Return: n

Enquiry: Follow-up entry: WNNLDYMDSRR [GAA_Y407_D404N]
Return: n

###

Parameter: phosphorylation enrichment. Scope: all listed entries.
- system-tested: FGFR1 (UniProt P11362)
- Sequence (P11362 whole entry, looked up): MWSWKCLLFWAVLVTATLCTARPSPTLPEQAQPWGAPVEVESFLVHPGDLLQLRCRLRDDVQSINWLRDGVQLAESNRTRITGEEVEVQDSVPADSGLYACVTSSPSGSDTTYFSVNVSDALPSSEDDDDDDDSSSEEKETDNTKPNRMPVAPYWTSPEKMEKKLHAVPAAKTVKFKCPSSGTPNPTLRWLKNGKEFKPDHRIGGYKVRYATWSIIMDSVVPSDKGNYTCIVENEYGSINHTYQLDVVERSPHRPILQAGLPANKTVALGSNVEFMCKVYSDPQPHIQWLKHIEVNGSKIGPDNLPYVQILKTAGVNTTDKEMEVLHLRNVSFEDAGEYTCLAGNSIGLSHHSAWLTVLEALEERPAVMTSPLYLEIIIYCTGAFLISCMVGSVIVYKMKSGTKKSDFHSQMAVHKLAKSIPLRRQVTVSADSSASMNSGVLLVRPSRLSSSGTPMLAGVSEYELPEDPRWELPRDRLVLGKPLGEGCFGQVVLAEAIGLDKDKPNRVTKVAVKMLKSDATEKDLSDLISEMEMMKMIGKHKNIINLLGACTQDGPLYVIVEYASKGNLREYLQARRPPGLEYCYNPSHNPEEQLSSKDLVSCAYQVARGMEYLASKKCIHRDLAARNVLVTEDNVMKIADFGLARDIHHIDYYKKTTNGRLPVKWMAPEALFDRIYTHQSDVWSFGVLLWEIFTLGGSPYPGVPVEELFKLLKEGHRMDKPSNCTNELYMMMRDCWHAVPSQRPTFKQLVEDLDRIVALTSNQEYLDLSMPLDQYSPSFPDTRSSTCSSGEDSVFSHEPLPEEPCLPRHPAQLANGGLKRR
- experiment: phosphorylation enrichment, bacterial display (enrichment ratio); higher = better substrate or ligand; peptides without Tyr show the background
Please give only the number in your answer, with no unit.

Answered examples (4):
Enquiry: Given VCHELYNTIRD [PBRM1_Y54] , state its recorded phosphorylation enrichment.
Return: 0.489

Enquiry: Would you kindly repeat that for FSQQVYRVNLS [FAT4_Y480] ?
Return: 0.49

Enquiry: Also check FPDFVYKCIKA [DPYSL2_Y479_R481C]
Return: 0.616

Enquiry: Would you mind doing SVVVPSEPPEV [TP53_Y220_Y220S] as well?
Return: 0.503

More entries:
Enquiry: Data request, read-out phosphorylation enrichment, for TISPFYRQSLF [CRYAA_Y48_YF]
Return: 0.448

Enquiry: Now this one: ISKKIYDTIHD [CTNNA3_Y614]
Return: 0.433

###

Listed sequences paired with reported SH2 binding enrichment
- system-tested: Grb2 SH2 (UniProt P62993)
- Sequence (P62993 whole entry, looked up): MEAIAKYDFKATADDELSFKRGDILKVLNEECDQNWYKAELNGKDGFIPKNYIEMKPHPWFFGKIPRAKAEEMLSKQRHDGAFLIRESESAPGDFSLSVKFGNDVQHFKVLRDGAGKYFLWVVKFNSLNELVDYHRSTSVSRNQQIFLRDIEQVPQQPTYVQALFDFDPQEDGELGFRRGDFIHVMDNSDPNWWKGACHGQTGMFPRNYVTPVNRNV
- experiment: SH2 binding enrichment of the phosphorylated peptide, bacterial display (enrichment ratio); higher = better substrate or ligand; peptides without Tyr show the background
Keep the answer to the number alone.

Below: 6 sequences and their reported SH2 binding enrichment.
Enquiry: // returns reported SH2 binding enrichment for input FSDPSYVKQME [CDC5L_Y464_YF]
Return: 0.883

Enquiry: Now this one: FVSAAYVKKLD [SPTAN1_Y1020_P1017S]
Return: 0.885

Enquiry: Entry TYGVAYRAKDK [CDK11B_Y453_V452A] please
Return: 0.881

Enquiry: Would you mind doing PSGPTYRGAVP [ASAH1_Y43] as well?
Return: 0.876

Enquiry: And what about the sequence PFGQWYESHFA [RPS8_Y113_R110G_YF] ?
Return: 1.15

Enquiry: And NAPNSYGRRPT [CDKN2A_Y44_I49T] ?
Return: 0.599

Further cases:
Enquiry: Query: SH2 binding enrichment; subject: DSASAYADEVK [ETNPPL_Y189]
Return: 0.724

Enquiry: Then this sequence: KLLLKYSFHDA [RNF213_Y4141_V4146A]
Return: 1.16

Enquiry: Okay, and IEPVIDVVQRR [ANOS1_Y217_Y217D] ?
Return: 0.848

Enquiry: Queued: MENFIYESMQF [CYP19A1_Y361_R365Q_YF]
Return: 0.679

Enquiry: Also CEETFYTMKVN [MASP2_Y401] , if possible.
Return: 0.842

Enquiry: Also LNERHYGALIG [BPGM_Y92] , if possible.
Return: 0.871

Enquiry: Now the same for CEDGNYSPEIS [PTDSS1_Y424_T423N]
Return: 1.01

Enquiry: Subsequent entry: NGVSYYINLCQ [IGF2R_Y2025]
Return: 0.717

###

- system-tested: Hck (UniProt P08631)
- Sequence (P08631 whole entry, looked up): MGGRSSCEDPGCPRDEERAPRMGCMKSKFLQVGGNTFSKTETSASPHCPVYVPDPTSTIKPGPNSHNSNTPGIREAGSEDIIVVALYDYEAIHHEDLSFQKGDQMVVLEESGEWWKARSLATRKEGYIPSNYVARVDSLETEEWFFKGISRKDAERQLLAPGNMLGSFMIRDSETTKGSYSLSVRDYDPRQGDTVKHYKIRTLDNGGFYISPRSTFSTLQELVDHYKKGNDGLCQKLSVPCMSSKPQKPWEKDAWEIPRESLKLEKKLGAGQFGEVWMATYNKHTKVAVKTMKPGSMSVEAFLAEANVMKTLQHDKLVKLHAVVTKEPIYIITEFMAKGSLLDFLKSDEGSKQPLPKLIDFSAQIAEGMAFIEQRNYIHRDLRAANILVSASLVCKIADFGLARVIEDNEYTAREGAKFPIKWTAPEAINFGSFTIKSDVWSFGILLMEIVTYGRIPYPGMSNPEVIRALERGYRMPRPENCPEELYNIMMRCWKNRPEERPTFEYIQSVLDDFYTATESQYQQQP
- experiment: phosphorylation enrichment, bacterial display (enrichment ratio); higher = better substrate or ligand; peptides without Tyr show the background
phosphorylation enrichment by entry:
API note: the answer field is a bare number with no unit suffix.

Please review the following examples before continuing.
Enquiry: // returns reported phosphorylation enrichment for input SYNNKYGMVAQ [APOB_Y276_K273N]
Return: 0.476

Enquiry: Again, but for NKPTVYGVSPN [ABL1_Y226]
Return: 0.603

Next:
Enquiry: Which value of phosphorylation enrichment has been reported for HQEPVYSVAFS [TBL1X_Y509] in the records?
Return: 14.2

###

- system-tested: EPHB2 (UniProt P29323)
- Sequence (P29323 whole entry, looked up): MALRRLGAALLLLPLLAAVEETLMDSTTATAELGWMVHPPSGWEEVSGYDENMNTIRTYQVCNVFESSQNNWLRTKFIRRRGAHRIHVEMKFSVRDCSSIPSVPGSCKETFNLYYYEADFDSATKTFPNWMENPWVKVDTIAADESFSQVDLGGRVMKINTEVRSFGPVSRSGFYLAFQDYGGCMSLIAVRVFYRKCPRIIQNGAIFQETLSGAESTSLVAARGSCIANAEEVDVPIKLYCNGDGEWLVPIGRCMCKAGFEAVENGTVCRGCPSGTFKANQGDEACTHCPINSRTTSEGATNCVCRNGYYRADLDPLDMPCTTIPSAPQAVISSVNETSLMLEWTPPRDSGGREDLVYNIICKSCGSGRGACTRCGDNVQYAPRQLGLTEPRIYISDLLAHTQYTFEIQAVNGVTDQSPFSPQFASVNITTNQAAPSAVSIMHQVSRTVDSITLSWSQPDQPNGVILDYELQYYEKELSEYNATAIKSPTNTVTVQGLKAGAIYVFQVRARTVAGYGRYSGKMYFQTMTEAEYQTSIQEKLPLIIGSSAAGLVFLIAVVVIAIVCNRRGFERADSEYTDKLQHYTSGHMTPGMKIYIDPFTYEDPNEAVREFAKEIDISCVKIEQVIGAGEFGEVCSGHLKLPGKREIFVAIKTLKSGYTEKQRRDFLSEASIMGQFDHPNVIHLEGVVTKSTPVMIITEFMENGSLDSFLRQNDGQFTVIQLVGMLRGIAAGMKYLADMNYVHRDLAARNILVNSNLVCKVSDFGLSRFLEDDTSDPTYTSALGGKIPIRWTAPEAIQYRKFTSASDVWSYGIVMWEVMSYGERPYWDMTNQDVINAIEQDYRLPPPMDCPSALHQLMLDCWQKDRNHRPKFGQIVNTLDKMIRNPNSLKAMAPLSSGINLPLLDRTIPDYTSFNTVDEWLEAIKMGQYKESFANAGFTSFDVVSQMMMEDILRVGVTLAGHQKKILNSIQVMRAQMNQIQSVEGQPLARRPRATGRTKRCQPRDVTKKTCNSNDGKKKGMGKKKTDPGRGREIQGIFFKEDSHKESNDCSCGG
- experiment: phosphorylation enrichment, bacterial display (enrichment ratio); higher = better substrate or ligand; peptides without Tyr show the background
Decision: phosphorylation enrichment >= 0.7 yields Yes, all other cases yield No.

Enquiry: Item ETPSEYLEIVR [TMEM130_Y412] with phosphorylation enrichment of 0.7 or above?
Return: No

More entries:
Enquiry: Is reported phosphorylation enrichment greater than or equal to 0.7 here: TFWKKYRTFWK [CCDC70_Y125]
Return: No

Enquiry: Repeat for the following sequence: VRLTEYPCAGL
Return: No

Enquiry: Subsequent entry: LSIQCYLRASD [HMGCS2_Y262_L266S]
Return: Yes

Enquiry: Try FDNPIYQKTTE [LDLR_Y828_V827I] next.
Return: Yes

###

phosphorylation enrichment reference
- system-tested: FGFR3 (UniProt P22607)
- Sequence (P22607 whole entry, looked up): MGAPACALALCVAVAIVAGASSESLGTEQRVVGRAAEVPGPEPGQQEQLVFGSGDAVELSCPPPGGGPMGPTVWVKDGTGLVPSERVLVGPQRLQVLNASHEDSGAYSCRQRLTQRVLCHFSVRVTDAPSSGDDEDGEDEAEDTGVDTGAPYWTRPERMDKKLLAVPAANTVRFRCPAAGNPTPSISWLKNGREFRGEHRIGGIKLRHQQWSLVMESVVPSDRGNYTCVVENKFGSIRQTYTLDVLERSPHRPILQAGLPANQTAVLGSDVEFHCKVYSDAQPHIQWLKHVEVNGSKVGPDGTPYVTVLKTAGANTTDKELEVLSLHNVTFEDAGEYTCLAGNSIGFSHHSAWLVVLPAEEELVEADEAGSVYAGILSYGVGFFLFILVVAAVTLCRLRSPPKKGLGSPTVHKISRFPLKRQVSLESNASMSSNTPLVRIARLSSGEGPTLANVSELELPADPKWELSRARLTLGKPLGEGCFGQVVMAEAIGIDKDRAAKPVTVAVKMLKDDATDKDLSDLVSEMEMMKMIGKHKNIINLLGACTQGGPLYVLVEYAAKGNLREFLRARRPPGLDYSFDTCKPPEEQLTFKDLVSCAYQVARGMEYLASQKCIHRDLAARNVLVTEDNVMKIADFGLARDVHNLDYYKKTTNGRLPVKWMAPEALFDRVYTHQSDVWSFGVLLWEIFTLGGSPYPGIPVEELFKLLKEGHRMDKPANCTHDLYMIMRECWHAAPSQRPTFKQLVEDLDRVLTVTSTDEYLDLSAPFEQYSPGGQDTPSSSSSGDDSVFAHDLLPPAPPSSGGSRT
- experiment: phosphorylation enrichment, bacterial display (enrichment ratio); higher = better substrate or ligand; peptides without Tyr show the background
Number, no unit, nothing else.

Would you please look over these solved cases?
Enquiry: Please look up its phosphorylation enrichment: RDGDRYFKGIV [DCX_Y64_N60D]
Return: 0.491

Enquiry: Also need KNKNRYKNVLP [PTPN11_Y279_I282V] , thanks.
Return: 0.716

Continue with the next sequence.
Enquiry: Which measured phosphorylation enrichment value corresponds to FFLGKYLQEVL [KLB_Y910_YF] ?
Return: 0.498

###

- system-tested: Grb2 SH2 (UniProt P62993)
- experiment: SH2 binding enrichment of the phosphorylated peptide, bacterial display (enrichment ratio); higher = better substrate or ligand; peptides without Tyr show the background
experimental-readout: SH2 binding enrichment
Answer with a bare number; do not write a unit.

Take a look at these entries with their results.
Enquiry: # returns recorded SH2 binding enrichment (system: Grb2 SH2 (UniProt P62993)) for YGMSTYITRED [FNDC3B_Y180]
Return: 0.608

Enquiry: Next: TNQVIYLNPPI [DYNC1H1_Y970]
Return: 0.819

---
Enquiry: Lab request: please report SH2 binding enrichment under test system Grb2 SH2 (UniProt P62993) for PASWTYVRWFD [PTDSS1_Y274]
Return: 1.47

Enquiry: Also, KKFVPYYDLFM [IPO5_Y530_E525K] please.
Return: 1.6

Enquiry: How about FEDTLYTVLHR [UNC13D_Y61_A59T_YF] ?
Return: 0.771

Enquiry: Same lookup for KWELRYMHSRV [ABCD1_Y281_G277W] , please.
Return: 1.06

Enquiry: Next up: ATFRGYDSDNP [MMUT_Y146_H143Y_YF]
Return: 1.01

Enquiry: Input SAEKAYHEQFS [TUBA1A_Y282_L286F]
Return: 0.983

Enquiry: Would you mind doing LERFIYNPEEF [HLA-DPB1_Y59_R61P_YF] as well?
Return: 0.791

Enquiry: How about TYQYKYPEGSS [TGM4_Y440_E437Q] ?
Return: 0.834

Enquiry: Okay, and CLSHCYFSQIR [MCM3AP_Y873_L870S] ?
Return: 1.22

Enquiry: Also, ANFTEYVATRW [CDKL5_Y171_YF] please.
Return: 0.806

Enquiry: Would you mind doing VRHRRYKHTHE [CTCF_Y343] as well?
Return: 0.665

###

- system-tested: Jak2 (UniProt O60674)
- Sequence (O60674 whole entry, looked up): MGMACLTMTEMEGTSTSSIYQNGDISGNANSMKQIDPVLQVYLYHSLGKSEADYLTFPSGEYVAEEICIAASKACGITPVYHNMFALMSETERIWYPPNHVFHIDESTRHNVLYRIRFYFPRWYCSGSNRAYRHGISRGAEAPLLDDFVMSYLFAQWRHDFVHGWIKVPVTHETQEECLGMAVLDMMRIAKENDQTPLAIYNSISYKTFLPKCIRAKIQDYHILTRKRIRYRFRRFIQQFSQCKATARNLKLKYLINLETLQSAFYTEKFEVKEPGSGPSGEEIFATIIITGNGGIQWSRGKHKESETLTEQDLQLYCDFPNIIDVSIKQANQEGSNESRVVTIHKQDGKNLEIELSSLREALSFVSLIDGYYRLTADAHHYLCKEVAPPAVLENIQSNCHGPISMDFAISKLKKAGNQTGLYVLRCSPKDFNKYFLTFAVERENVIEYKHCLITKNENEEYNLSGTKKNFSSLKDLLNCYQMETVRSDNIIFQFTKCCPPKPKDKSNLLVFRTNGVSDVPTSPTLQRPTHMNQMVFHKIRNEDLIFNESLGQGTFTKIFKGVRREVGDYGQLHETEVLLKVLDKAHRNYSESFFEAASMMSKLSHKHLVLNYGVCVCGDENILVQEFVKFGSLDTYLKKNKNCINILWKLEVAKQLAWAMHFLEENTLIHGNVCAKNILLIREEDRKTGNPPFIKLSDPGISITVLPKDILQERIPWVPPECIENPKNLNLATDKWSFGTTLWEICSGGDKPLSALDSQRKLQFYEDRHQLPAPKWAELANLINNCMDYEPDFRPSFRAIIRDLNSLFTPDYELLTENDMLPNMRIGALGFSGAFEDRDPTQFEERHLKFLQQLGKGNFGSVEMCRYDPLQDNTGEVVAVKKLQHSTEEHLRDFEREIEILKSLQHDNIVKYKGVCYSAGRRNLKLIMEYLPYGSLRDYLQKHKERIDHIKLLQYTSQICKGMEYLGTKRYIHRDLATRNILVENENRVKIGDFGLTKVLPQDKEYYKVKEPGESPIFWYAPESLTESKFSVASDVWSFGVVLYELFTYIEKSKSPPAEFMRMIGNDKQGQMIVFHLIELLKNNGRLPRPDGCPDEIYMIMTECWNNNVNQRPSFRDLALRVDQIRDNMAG
- experiment: phosphorylation enrichment, bacterial display (enrichment ratio); higher = better substrate or ligand; peptides without Tyr show the background
Measured phosphorylation enrichment, listed per entry for reference.
Reply with the value as a number alone.

// below: answered sequences
Enquiry: Look at this sequence and give its reported phosphorylation enrichment. PVPKTYDMLKA [PKP2_Y108]
Return: 1.92

Enquiry: Thanks! And PEAALYGRFTF [FYN_Y440_I445F] ?
Return: 1.41

More entries:
Enquiry: Bench note: what phosphorylation enrichment did RFLFFYSFLLK [PTEN_Y178_V175L_YF] show?
Return: 1.53

Enquiry: What about FQEKSYIKGTS [LCTL_Y331_L326F] ?
Return: 0.87

Enquiry: Try this sequence next: LVRPPYSYSAL [FOXI1_Y126]
Return: 1.03

Enquiry: Moving on to TEVRRYVLPLN [RPE65_Y368_P363T]
Return: 0.661

Enquiry: Next: ERIELYELDKK [PMM2_Y145_F144L]
Return: 0.887

Enquiry: Consider next the sequence ALEKTYNTFRS [B4GALNT2_Y538_YF] in the same way.
Return: 0.73

Enquiry: Consider next the sequence AEKPKYQINNI [TJP1_Y1602] in the same way.
Return: 0.704
